Test system: Klebsiella pneumoniae ST258
Assay: microbe, parasite or virus in culture
Type: cell-based
Conditions: Klebsiella pneumoniae, ST258, 18 h, read-out: Minimal Inhibitory Concentration, K. pneumoniae
Listed molecules paired with reported MIC

Solved entries:
[
  {
    "molecule": "COc1cc(Cc2cnc(N)nc2N)cc(OC)c1OC [Trimethoprim]",
    "system_under_test": "Klebsiella pneumoniae ST258",
    "measurement": "> 50 µg/mL"
  },
  {
    "molecule": "CC[C@H]1OC(=O)[C@H](C)[C@@H](O[C@H]2C[C@@](C)(OC)[C@@H](O)[C@H](C)O2)[C@H](C)[C@@H](O[C@@H]2O[C@H](C)C[C@H](N(C)C)[C@H]2O)[C@](C)(O)C[C@@H](C)CN(C)[C@H](C)[C@@H](O)[C@]1(C)O [Azithromycin]",
    "system_under_test": "Klebsiella pneumoniae ST258",
    "measurement": "> 50 µg/mL"
  },
  {
    "molecule": "CNC(C)C1CCC(N)C(OC2C(N)CC(N)C(OC3OCC(C)(O)C(NC)C3O)C2O)O1 (centres unmarked) [Gentamicin]",
    "system_under_test": "Klebsiella pneumoniae ST258",
    "measurement": "12.5 µg/mL"
  }
]

Entry C[C@H]1COc2c(N3CCN(C)CC3)c(F)cc3c(=O)c(C(=O)O)cn1c23 [Levofloxacin] : reported MIC = ?
50 µg/mL

// repeat for CO/N=C(\C(=O)N[C@@H]1C(=O)N2C(C(=O)O)=C(CSc3nc(=O)c(=O)[nH]n3C)CS[C@H]12)c1csc(N)n1 [Ceftriaxone] and report
> 50 µg/mL

// repeat for CN[C@H](CC(C)C)C(=O)N[C@H]1C(=O)N[C@@H](CC(N)=O)C(=O)N[C@H]2C(=O)N[C@H]3C(=O)N[C@H](C(=O)N[C@H](C(=O)O)c4cc(O)cc(O)c4-c4cc3ccc4O)[C@H](O)c3ccc(c(Cl)c3)Oc3cc2cc(c3O[C@@H]2O[C@H](CO)[C@@H](O)[C@H](O)[C@H]2O[C@H]2C[C@](C)(N)[C@H](O)[C@H](C)O2)Oc2ccc(cc2Cl)[C@H]1O [Vancomycin] and report
> 50 µg/mL

// repeat for CC1(C)S[C@@H]2[C@H](NC(=O)[C@H](N)c3ccc(O)cc3)C(=O)N2[C@H]1C(=O)O [Amoxicillin] and report
> 50 µg/mL

// repeat for Cc1cc(NS(=O)(=O)c2ccc(N)cc2)no1 [Sulfamethoxazole] and report
> 50 µg/mL

----------
Assay: Stability in supernatant of S. aureus growth
Type: in vitro ADME, Staphylococcus aureus
Conditions: 50 μg/mL, 12 h at 37 °C, extraction, reverse phase HPLC at 230 nm
Where no end group is shown, it is not given here.

[
  {
    "sequence_data": "FWGLKGLKKFSKKL [Pin2[14]]",
    "Stability in supernatants of S. aureus": "not cleaved"
  },
  {
    "sequence_data": "FWGALAKGALKLIGSLFSSFSKKD [Pin2[G]]",
    "Stability in supernatants of S. aureus": "not cleaved"
  }
]

----------
Test: Stability in human blood plasma
Type: in vitro ADME
Settings: 50 μg/mL, 12 h at 37 °C, extraction, reverse phase HPLC at 230 nm, ESI-MS
Where no end group is shown, it is not given here.
metric_name: Peptide found after incubation in human blood plasma

[
  {
    "sequence_data": "GILKTIKSIASKVANTVQKLKRKAKNAV [FA1]",
    "measurement": "not found"
  },
  {
    "sequence_data": "FWGLKGLKKFSKKL [Pin2[14]]",
    "measurement": "not found"
  }
]
